Documented IC50 across a set of compounds
- study system: DRB4*0101 (Homo sapiens, UniProt P01903+P13762, G164S)
- method summary: biochemical
measurement kind: IC50

>>> experimental_value("CC[C@H](C)[C@H](NC(=O)[C@@H](N)CCCCN)C(=O)N[C@H](C(=O)N[C@@H](CCC(N)=O)C(=O)N[C@@H](Cc1c[nH]c2ccccc12)C(=O)N[C@@H](CC(C)C)C(=O)N[C@@H](CCC(=O)O)C(=O)N[C@H](C(=O)N[C@@H](CCCCN)C(=O)NCC(=O)N[C@H](C(=O)N[C@@H](CCC(=O)O)C(=O)N[C@@H](CCCNC(=N)N)C(=O)N[C@@H](CC(C)C)C(=O)N[C@@H](CCCCN)C(=O)N[C@@H](CCCNC(=N)N)C(=O)N[C@@H](CCSC)C(=O)O)C(C)C)[C@@H](C)O)[C@@H](C)O")
"15.3 µM"
>>> experimental_value("CC[C@H](C)[C@H](NC(=O)[C@H](CC(=O)O)NC(=O)[C@H](CCSC)NC(=O)[C@@H](N)C(C)C)C(=O)N[C@H](C(=O)N[C@@H](CO)C(=O)N[C@@H](CCCNC(=N)N)C(=O)N[C@@H](CCCCN)C(=O)N[C@@H](CC(=O)O)C(=O)N[C@@H](CCC(N)=O)C(=O)N[C@@H](CCCNC(=N)N)C(=O)NCC(=O)N[C@@H](CO)C(=O)NCC(=O)N[C@@H](CCC(N)=O)C(=O)N[C@H](C(=O)NCC(=O)O)C(C)C)[C@@H](C)CC")
"6.24 µM"
>>> experimental_value("CC[C@H](C)[C@H](NC(=O)[C@H](C)NC(=O)[C@H](CCSC)NC(=O)[C@H](CCCNC(=N)N)NC(=O)[C@H](CCCCN)NC(=O)[C@H](CC(C)C)NC(=O)[C@H](CCCNC(=N)N)NC(=O)[C@H](CCC(=O)O)NC(=O)[C@@H](N)C(C)C)C(=O)N[C@@H](CO)C(=O)NCC(=O)N[C@@H](CC(=O)O)C(=O)N[C@@H](CC(=O)O)C(=O)N[C@@H](CS)C(=O)N[C@H](C(=O)N[C@H](C(=O)N[C@@H](CCCCN)C(=O)O)C(C)C)C(C)C")
"0.618 µM"
